method description: In vitro cytotoxicity against normal fibroblast cells WI38
Format: cell-based
reported conditions: human, concentration producing 50% reduction in cell growth
// NB: equality with 500 nM counts as Not satisfied; only IC50 strictly below is Satisfied

Illustrative cases are given below, each with its answer.
compound="COc1ccc(C2C(Br)=C(c3cc4ccccc4oc3=O)NC(N)=C2C#N)cc1 (stereo not shown)" class_label=Satisfied
compound=N#Cc1c(N)sc(Br)c1-c1cc2ccccc2oc1=O class_label="Not satisfied"
compound="N#CC1=C(N)OC(c2cc3ccccc3oc2=O)=C(C#N)C1c1ccccc1 (stereo not shown) [Compound 10a]" class_label=Satisfied

Here's an entry: N#CC1=C(N)NC(c2cc3ccccc3oc2=O)=C(Br)C1c1ccccc1 (stereo not shown) . Is its IC50 below 500 nM?
Satisfied

Threshold test, IC50 < 500 nM: N#CC1=C(N)OC(c2cc3ccccc3oc2=O)=C(Br)C1c1ccc(Cl)cc1 (stereo not shown)
Satisfied

Quick check: does N#CC(C#N)=C(CO)c1cc2ccccc2oc1=O have IC50 under 500 nM?
Not satisfied
